Tested on: Yap1 mRNA
method: Dose-dependent inhibition of human Yap1 in A-431 cells (Example 6, 5,000 cells per well, RTS4814)
Assay type: cell-based
condition.context: Table 55; 148 nM, free uptake, A-431 cells 5,000 cells per well, 48 hours, RTS4814
Procedure: Modified oligonucleotides described in the studies above were tested at various doses in A-431 cells. […] After approximately 48 hours, Yap1 mRNA levels were measured as previously described using the Human Yap1 primer-probe set RTS4814. Yap1 mRNA levels were normalized to total RNA content, as measured by RIBOGREEN®. […] IC50s were calculated using a linear regression on a log/linear plot of the data in excel.
Strand notation (5' to 3'): a small letter for the sugar, then the base; units joined by * are phosphorothioate-linked, units joined directly phosphodiester-linked; [ ] holds rarer units or linkages, { } end groups; capitals alone tell only the bases. k = constrained ethyl (cEt); [5mC] = 5-methylcytosine; d = 2'-deoxy (DNA)

>  <substance>
716537 (antisense kA*kT*kG*dT*dG*d[5mC]*dT*d[5mC]*d[5mC]*dA*dT*d[5mC]*dA*kA*k[5mC]*k[5mC]) [compound 716537]

>  <assay.system>
Yap1 mRNA

>  <Yap1 mRNA, % UTC [% UTC]>
120

$$$$
>  <substance>
716387 (antisense kT*kA*kT*dG*dG*dT*dT*dT*dA*dT*dA*dT*dA*kG*kT*kA) [compound 716387]

>  <assay.system>
Yap1 mRNA

>  <Yap1 mRNA, % UTC [% UTC]>
94

$$$$
>  <substance>
716407 (antisense k[5mC]*kT*kT*dA*dG*dT*d[5mC]*d[5mC]*dA*d[5mC]*dT*dG*dT*k[5mC]*kT*kG) [compound 716407]

>  <assay.system>
Yap1 mRNA

>  <Yap1 mRNA, % UTC [% UTC]>
84

$$$$
>  <substance>
716500 (antisense kA*kA*k[5mC]*dT*dT*d[5mC]*dT*dT*dA*d[5mC]*dT*dT*d[5mC]*k[5mC]*kA*kA) [compound 716500]

>  <assay.system>
Yap1 mRNA

>  <Yap1 mRNA, % UTC [% UTC]>
88

$$$$
>  <substance>
716455 (antisense kG*kT*kT*dA*dT*dG*dT*dT*dT*dG*dG*dG*dT*kG*kT*kG) [compound 716455]

>  <assay.system>
Yap1 mRNA

>  <Yap1 mRNA, % UTC [% UTC]>
95

$$$$
>  <substance>
716479 (antisense kG*kA*kA*d[5mC]*dA*dA*dT*d[5mC]*dT*dT*dG*dA*dA*kG*kG*k[5mC]) [compound 716479]

>  <assay.system>
Yap1 mRNA

>  <Yap1 mRNA, % UTC [% UTC]>
88

$$$$
>  <substance>
716513 (antisense kA*kA*kT*d[5mC]*dT*dT*dA*dA*dT*d[5mC]*dT*dG*dT*kG*kG*k[5mC]) [compound 716513]

>  <assay.system>
Yap1 mRNA

>  <Yap1 mRNA, % UTC [% UTC]>
82

$$$$
>  <substance>
716524 (antisense kA*k[5mC]*kT*dG*dA*dG*dG*dT*dA*dT*dA*dA*d[5mC]*kT*kG*kG) [compound 716524]

>  <assay.system>
Yap1 mRNA

>  <Yap1 mRNA, % UTC [% UTC]>
103

$$$$
>  <substance>
716489 (antisense kA*kG*kT*dT*dA*dA*dT*dT*d[5mC]*dA*dT*dG*d[5mC]*kT*k[5mC]*kG) [compound 716489]

>  <assay.system>
Yap1 mRNA

>  <Yap1 mRNA, % UTC [% UTC]>
84

$$$$
>  <substance>
716480 (antisense kG*k[5mC]*kA*dA*dG*dT*d[5mC]*dT*dT*dG*dT*dA*dA*kG*kT*kA) [compound 716480]

>  <assay.system>
Yap1 mRNA

>  <Yap1 mRNA, % UTC [% UTC]>
80

$$$$
>  <substance>
716501 (antisense kG*k[5mC]*kA*d[5mC]*dT*dG*dA*dA*dA*dG*dT*dA*d[5mC]*kT*kT*kA) [compound 716501]

>  <assay.system>
Yap1 mRNA

>  <Yap1 mRNA, % UTC [% UTC]>
91

$$$$
>  <substance>
716503 (antisense kT*kT*kA*dT*dT*dA*dT*dG*dA*dG*dT*dG*dA*kT*k[5mC]*kA) [compound 716503]

>  <assay.system>
Yap1 mRNA

>  <Yap1 mRNA, % UTC [% UTC]>
91

$$$$
>  <substance>
716381 (kT*kG*kT*d[5mC]*dT*dG*dA*dT*d[5mC]*dG*dA*dT*dG*kT*kG*kA; antisense) [compound 716381]

>  <assay.system>
Yap1 mRNA

>  <Yap1 mRNA, % UTC [% UTC]>
106

$$$$
>  <substance>
716543 (antisense kT*kA*kT*dT*dT*dG*dT*dA*dG*d[5mC]*dA*dA*dA*kG*kT*k[5mC]) [compound 716543]

>  <assay.system>
Yap1 mRNA

>  <Yap1 mRNA, % UTC [% UTC]>
62

$$$$
>  <substance>
716419 (antisense kT*kT*kT*d[5mC]*d[5mC]*dG*dG*dT*dG*d[5mC]*dA*dT*dG*kT*kG*kT) [compound 716419]

>  <assay.system>
Yap1 mRNA

>  <Yap1 mRNA, % UTC [% UTC]>
89

$$$$
>  <substance>
715478 (kA*k[5mC]*k[5mC]*dA*dT*dT*dA*dT*dT*dA*d[5mC]*dT*d[5mC]*k[5mC]*kT*kG; antisense) [compound 715478]

>  <assay.system>
Yap1 mRNA

>  <Yap1 mRNA, % UTC [% UTC]>
76

$$$$
>  <substance>
716438 (antisense kA*kT*kT*dT*dT*dT*dG*dG*d[5mC]*dT*dT*dG*dT*k[5mC]*kA*kG) [compound 716438]

>  <assay.system>
Yap1 mRNA

>  <Yap1 mRNA, % UTC [% UTC]>
93

$$$$
>  <substance>
716554 (antisense kA*kT*kG*d[5mC]*dT*dT*dG*d[5mC]*dG*dA*dG*dG*dA*kT*kA*kA) [compound 716554]

>  <assay.system>
Yap1 mRNA

>  <Yap1 mRNA, % UTC [% UTC]>
87

$$$$
>  <substance>
716548 (antisense kG*kA*kG*dT*dT*dT*d[5mC]*dA*dA*d[5mC]*dA*d[5mC]*dT*kG*kA*kT) [compound 716548]

>  <assay.system>
Yap1 mRNA

>  <Yap1 mRNA, % UTC [% UTC]>
99

$$$$

* * *

Test system: Yap1 mRNA
method: Dose-dependent inhibition of human Yap1 in A-431 cells (Example 24, 11,000 cells per well, RTS36584, normalized to GAPDH)
Assay type: cell-based
condition.context: 0.002 μM, free uptake, 48 hours, RTS36584, normalized to GAPDH
Experimental: Modified oligonucleotides described in the studies above were tested at various doses in A-431 cells. […] After approximately 48 hours, Yap1 mRNA levels were measured as previously described using the Human Yap1 primer-probe set RTS36584. Yap1 mRNA levels were normalized to GAPDH content, as measured by primer probe set RTS104 (forward sequence […], designated herein as SEQ ID NO.: 17; reverse sequence […], designated herein as SEQ ID NO.: 18; probe sequence […], designated herein as SEQ ID NO.: 19). […]
Yap1 mRNA, % UTC values, listed per item

>  <substance>
1198872 (TGTATGTCAGAAGAGT; chemically modified gapmer, further chemistry not given here) [compound 1198872]

>  <output.unit>
% UTC

>  <Yap1 mRNA, % UTC>
1

$$$$
>  <substance>
1198439 (AGTGTATGTCAGAAGA; sugar, 5-methylcytosine, phosphorothioate modifications, further chemistry not given here) [compound 1198439]

>  <output.unit>
% UTC

>  <Yap1 mRNA, % UTC>
0

$$$$
>  <substance>
958499 (ATTAGAGTATGTGGCA; 3-10-3 cEt gapmer, further chemistry not given here) [compound 958499]

>  <output.unit>
% UTC

>  <Yap1 mRNA, % UTC>
1

$$$$
>  <substance>
1198831 (CACTTTTACATTAGGA; chemically modified gapmer, further chemistry not given here) [compound 1198831]

>  <output.unit>
% UTC

>  <Yap1 mRNA, % UTC>
2

$$$$

* * *

Overview of recorded YAP1 (% UTC) for various substances
System: Yap1 mRNA
method: Antisense inhibition of human Yap1 in A-431 cells by cEt gapmers, single dose (Example 2, RTS4814)
Assay type: cell-based
condition.context: Table 22; Yap1 mRNA as percent of untreated control; 3-10-3 cEt gapmers; single dose
Description: Modified oligonucleotides were designed to target a Yap1 nucleic acid and were tested for their effect on Yap1 mRNA level in vitro. The modified oligonucleotides were tested in a series of experiments that had similar culture conditions. […] After a treatment period of approximately 48 hours, RNA was isolated from the cells and Yap1 mRNA levels were measured by quantitative real-time RTPCR. […] Yap1 mRNA levels were normalized to total RNA content, as measured by RIBOGREEN®. […]
Strand notation (5' to 3'): a small letter for the sugar, then the base; units joined by * are phosphorothioate-linked, units joined directly phosphodiester-linked; [ ] holds rarer units or linkages, { } end groups; capitals alone tell only the bases. k = constrained ethyl (cEt); [5mC] = 5-methylcytosine; d = 2'-deoxy (DNA)

>  <substance>
1076040 (k[5mC]*kT*kT*dA*dA*dA*dG*dA*dA*dG*d[5mC]*dA*d[5mC]*kT*kA*kG; antisense) [Compound 1076040]

>  <YAP1 (% UTC)>
105

$$$$
>  <substance>
1074312 (antisense kA*kT*kA*dT*dT*d[5mC]*d[5mC]*dG*d[5mC]*dA*dT*dT*dG*k[5mC]*k[5mC]*kT) [Compound 1074312]

>  <YAP1 (% UTC)>
18

$$$$
>  <substance>
1074536 (antisense kA*kG*kT*dA*dA*dT*dA*dG*d[5mC]*dT*d[5mC]*dT*dT*kT*k[5mC]*kT) [Compound 1074536]

>  <YAP1 (% UTC)>
6

$$$$
>  <substance>
1076328 (kA*k[5mC]*kT*dG*dA*dA*d[5mC]*d[5mC]*dG*d[5mC]*dT*dG*d[5mC]*k[5mC]*kT*k[5mC]; antisense) [Compound 1076328]

>  <YAP1 (% UTC)>
33

$$$$
>  <substance>
1075656 (kA*kA*kA*dA*d[5mC]*dG*dG*dT*dT*dT*dT*dT*d[5mC]*kT*kA*kA; antisense) [Compound 1075656]

>  <YAP1 (% UTC)>
103

$$$$
>  <substance>
1076008 (kA*kG*k[5mC]*dG*dA*dA*dA*dA*dT*dA*dA*d[5mC]*dA*kT*kT*kA; antisense) [Compound 1076008]

>  <YAP1 (% UTC)>
33

$$$$

Sourced from patent US11214803B2
